Values from ChEMBL document CHEMBL1201862

tested on: SNB-19; assay: NCI tumour cell line growth inhibition, 48 h
Active and inactive are the calls of the source. No stated cut-off is given here; in the data, active = GI50 up to about 1.1 µM and inactive = higher.
RESULT TYPE: GI50

Examples with answers:
>  <COMPOUND>
COCOc1c(C(OCOC)c2cnc(Sc3ccccc3)n2C)ccc(OC)c1OC (centres undefined)

>  <OBS VALUE>
> 100 µM (inactive)

$$$$
>  <COMPOUND>
C/C=C(/CBr)CCC(Br)C(C)(C)Cl.C/C=C(\CBr)CCC(Br)C(C)(C)Cl (centres undefined)

>  <OBS VALUE>
> 10 µM (inactive)

$$$$
>  <COMPOUND>
CNC(=O)C(C)C1C(=O)/C(=C(O)/C=C\C(C)=C\C(C)C2OC3(C)OC(C=CC34CO4)C2C)C(=O)N1C1CCC(O)C(C)O1 (centres undefined)

>  <OBS VALUE>
> 100 µM (inactive)

$$$$

API: the following record is the query input.
**Q:** # lookup: GI50 of CCN(CC)CCC(=O)OC1C(C)=CC(C)C(=O)CC(C(C)CC2CCC(O)C(OC)C2)OC(=O)C2CCCCN2C(=O)C(=O)[C@@]2(O)OC(CCC2C)CC(OC)\C(C)=C/C=C/C=C/C(C)CC(C)C(=O)C1OC (some centres undefined)
**A:** 4.34 µM (inactive)
